- testedOn: SNARE complex in cells of a human neuroblastoma cell line (human, UniProt P60880 1-206)
- Sequence (P60880 whole entry, one chain of several): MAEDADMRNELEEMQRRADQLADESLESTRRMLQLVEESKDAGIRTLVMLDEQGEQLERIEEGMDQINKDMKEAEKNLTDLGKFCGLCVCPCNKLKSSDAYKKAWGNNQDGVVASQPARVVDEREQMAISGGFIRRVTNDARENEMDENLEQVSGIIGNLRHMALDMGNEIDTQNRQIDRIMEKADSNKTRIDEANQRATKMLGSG
- method: cell-based or functional assay
measurementName: % RELEASED NO… (Average), dose 10 µM (%)
Numeric answer only, unit % assumed.

Past entries and their recorded results:
binder="Ac-EDLKRWM-NH2 [Ac-SEQ ID NO:14-NH2]" measurementname="% RELEASED NO… (Average), dose 10 µM" observedmeasurement=85
binder="Ac-DHFQQRM-NH2 [Ac-SEQ ID NO:24-NH2]" measurementname="% RELEASED NO… (Average), dose 10 µM" observedmeasurement=97.1
binder="Ac-EHLKQWM-NH2 [Ac-SEQ ID NO:1-NH2]" measurementname="% RELEASED NO… (Average), dose 10 µM" observedmeasurement=93.1

# input binder: Ac-DHFLDWM-NH2 [Ac-SEQ ID NO:25-NH2] ; wanted: its % RELEASED NO… (Average), dose 10 µM
94.5
